Source of measurements: PubChem BioAssay (NCI)

# Tested on: RXF 393 renal
# PROTOCOL DETAILS: NCI-60 one-dose screen, 48 h
# CONDITION DESCRIPTION: 10 µM unless noted
# Protocol: Cells are grown in 96 well plates and exposed to the test compound for 48 hours. Compounds are tested at a single concentration, which is 10^-5 M for most compounds. The reported endpoint is percent growth (GI% or GIPRCNT), where numbers from 0 - 100% represent growth inhibition, and numbers from -100% - 0 represent cell death. For example, a value of 40 represents 60% growth inhibition. A value of 0 means no net growth occurred over the course of the experiment. […]
Compounds without any hit were thinned out: in the full panel of roughly 83,000, 20% have a hit. Active and inactive are the calls of the source. Rule for the calls: active = growth percent below 10; inactive = the rest.
Answer with one of the outcomes label 1 for active, label 0 for inactive

Hello, I am checking results. What call was entered for O=C1CCC(N2C(=O)c3cccc(NCCOCCOCCOCCC(=O)NCCCC(=O)NC(c4ccc5c(c4)OCO5)c4cc(Cl)c5cccnc5c4O)c3C2=O)C(=O)C1 (stereo not drawn) ?
label 0

Dear all, I need the recorded test outcome for O=C(N/N=C/c1ccc(-c2cccc([N+](=O)[O-])c2)s1)c1[nH]c2ccc(Br)cc2c1-c1ccccc1 , thank you.
label 0

Could you check what this test reported for COc1ccc2nc(NC(=O)c3ccc(N(C)C)cc3)sc2c1 ?
label 0

Identify the outcome logged in this assay for the molecule shown: COc1ccc2[nH]c(O)c(N=Nc3nc(-c4ccccc4)cs3)c2c1
label 1

What classification did OC1CCC(Cn2c(C(F)(F)F)cc3c(Cl)ncnc32)CC1 (stereo not drawn) end up with in this test?
label 0

Hey, what did the test say about CCCCCCCOc1ccc(S(=O)(=O)Nc2ccc(C)c(F)c2C(=O)O)cc1 ?
label 0

How did this test come out for CC1=C(C(=O)Nc2ccccc2)C(c2cccc3ccccc23)n2c(nc3ccccc32)N1 (stereo not drawn) ?
label 0

Could you please tell me the result logged for COc1ccc(NC(=O)NN2C(=O)c3ccccc3N(C)C2c2ccc(OC)cc2)cc1 (stereo not drawn) in this assay?
label 0

====

# Tested on: RXF 393 renal
# PROTOCOL DETAILS: NCI-60 one-dose screen, 48 h (100 = growth as untreated, 0 = no growth, -100 = all killed)
# CONDITION DESCRIPTION: 10 µM unless noted
This is part of a sample that, as a whole, favours compounds with a hit. Of some 83,000 tested, about 20% had one in any assay.
ASSAY READOUT: growth (%)
Value expressed in %; do not type the unit.

Suppose we examine the compound C/C(=N/O)c1ccc(NC(=O)CSc2nnc(-c3ccc(-c4nc5ccc(Cl)cc5[nH]4)cc3)o2)cc1 ; what growth value has been reported?
-71.5

For the compound Cc1cnc2ccc(Oc3ccccc3-c3ccccc3)nn12 , what growth is on record?
107

# lookup: growth of O=C(Nc1nc2ccc([N+](=O)[O-])cc2s1)Nc1ccc(Cl)cc1Cl
20

Value lookup for growth; key = Fc1ccccc1CNc1nc(SCCN2CCOCC2)nc2c1cnn2CC(Cl)c1ccc(Br)cc1 (centres undefined)
-13.9

growth for N#Cc1cc(-c2ccc3ncnc(N4CCc5cc(F)c(Cl)cc54)c3c2)cnc1N ?
17.9

growth for CC(=O)c1c2c(c3ccc4c5ccccc5ccc4n13)C(=O)c1ccccc1C2=O ?
59.6

Report growth for C[C@@H]1CN(c2ccc3ncc(C#Cc4cncc(C(=O)Nc5ccc(CN6CCN(C)CC6)c(C(F)(F)F)c5)c4)n3n2)C[C@@H](C)O1 please.
-96.1

Please report the recorded growth for CN1CCN(CCS(=O)(=O)Nc2cc(-c3ccc4ncnc(Nc5ccc(F)c(Cl)c5)c4c3)cnc2Cl)CC1 .
-1.07

So what's the measured growth for this one? Cc1ccc(C(=O)C[n+]2cccc3c4ccccc4ccc32)cc1
5.94

Could you share which growth value was measured for CN1C(=O)/C(=C\C(=O)c2cc3ccccc3oc2=O)c2ccccc21 ?
30.5

What value of growth has been recorded for this entry: Cc1ccc(N=Nc2c(N)nn3c(-c4cc5cc(Br)ccc5oc4=O)ccnc23)cc1
-3.16

Which growth is reported for this compound? CCC(=O)c1c2c(c3ccc4c5ccccc5ccc4n13)C(=O)c1ccccc1C2=O
109

Reported growth for O=C(NC(=S)N1CCN(c2ncnc3c2cnn3-c2ccccc2)CC1)c1ccc(Br)cc1 : what is it?
69.1

For COc1ccc2c(c1)C(Sc1ccc(Cl)cc1)c1c(nc(N)c(C#N)c1N)O2 (centres undefined) , what is its reported growth?
56.4

====

# Tested on: IGROV1 ovarian
# PROTOCOL DETAILS: NCI-60 one-dose screen, 48 h (100 = growth as untreated, 0 = no growth, -100 = all killed)
# CONDITION DESCRIPTION: 10 µM unless noted
Compounds without any hit were thinned out: in the full panel of roughly 83,000, 20% have a hit.
ASSAY READOUT: growth (%)
The response must be a number in % with no trailing unit.

Requested field: growth. Item: O=C(NN1C(=O)/C(=C/C=C/c2ccc([N+](=O)[O-])o2)SC1=S)c1ccncc1
-94.9

Name the reported growth value associated with the molecule O=C(N/N=C/c1ccc(B(O)O)s1)c1[nH]c2ccc(Br)cc2c1-c1ccccc1
-74.8

Fill in the blank: the reported growth of N#CC1=C(c2ccco2)Nc2c(c(-c3ccccc3)nn2-c2ccccc2)C12C(=O)Nc1ccc(Cl)cc12 (stereo not given) is ____.
39.2

Find the recorded growth belonging to COc1ccc2nc(NC(=O)c3ccc(N(C)C)cc3)sc2c1 and report it.
99.5

Param item = COc1cc(CNC(=O)C[C@H](C)CCC=C(C)C)ccc1OCc1cn(-c2ccc(Br)cc2)nn1 ; retrieve measured growth.
89.9

====

Please go through the items and note down their growth.
# Test system: BT-549 breast
# PROTOCOL DETAILS: NCI-60 one-dose screen, 48 h (100 = growth as untreated, 0 = no growth, -100 = all killed)
# CONDITION DESCRIPTION: 10 µM unless noted
Compounds without any hit were thinned out: in the full panel of roughly 83,000, 20% have a hit. Active and inactive are the calls of the source. Rule for the calls: active = growth percent below 10; inactive = the rest.

Quick one: growth for CC(C)(C)C(=O)c1c2c(c3ccc4c5ccccc5ccc4n13)C(=O)c1ccccc1C2=O ?
101% (inactive)

// growth lookup, key: O=c1[nH]c2ccccc2cc1COc1ccc(Nc2nccc(-c3ccc(Cl)cc3)n2)cc1
99.3% (inactive)

Fill blank: measured growth of the compound Cc1ccc(Nc2nnc(-c3c[nH]c4ccccc34)o2)c(C)c1 is ____.
29.6% (inactive)

Give its growth value. Item: Cc1ccc(S(=O)(=O)N(CCn2ccnc2[N+](=O)[O-])CCn2ccnc2[N+](=O)[O-])cc1
119% (inactive)

====

# Test system: NCI-H23 lung
# PROTOCOL DETAILS: NCI-60 one-dose screen, 48 h (100 = growth as untreated, 0 = no growth, -100 = all killed)
# CONDITION DESCRIPTION: 10 µM unless noted
This is part of a sample that, as a whole, favours compounds with a hit. Of some 83,000 tested, about 20% had one in any assay.
ASSAY READOUT: growth (%)
Return type: number; implicit unit %.

Which growth is listed for COc1ccc2[nH]c(=O)c(CSc3ccccc3Nc3nccc(-c4ccc(C(F)(F)F)cc4)n3)cc2c1 ?
30.7

So what does the record say about growth for Clc1ccc(-c2nc3c4c(-c5ccccc5)c(-c5ccccc5)n(Cc5ccccc5)c4ncn3n2)cc1 ?
2.75

Endpoint output: growth of O=C(Cn1c(-c2ccccc2)nc2ccccc21)N=Nc1c(O)[nH]c2ccc(Br)cc12 . Value?
3.3

====

# Test system: HCT-116 colon
# PROTOCOL DETAILS: NCI-60 one-dose screen, 48 h
# CONDITION DESCRIPTION: 10 µM unless noted
About 83,000 compounds went through this panel and 20% of them were active in at least one assay; those are over-represented in the sample as a whole. The source made the active and inactive calls. How the source made its calls: active means growth percent below 10; inactive means the rest.
Assign a class; possible classes are Y = active, N = inactive

Outcome logged for CC(C)(C)OC(=O)N1CCC2(CC1)Oc1ccccc1[C@H]1CC(c3ccc(Br)cc3)=NN12 in this assay:
N

What is the recorded call for this compound in the test? COc1ccc(-c2cc(C)nc3[nH]c(=O)sc23)cc1
N

So what was the verdict on CC(C)CN1C(=O)/C(=C\C(=O)c2cc3ccccc3oc2=O)c2ccccc21 in this test?
N

Recorded call for OC(c1ccccc1)(c1ccccc1)C1CCN(c2ccc3nnc(Cl)n3n2)CC1 ?
N

What did the test return for Clc1ccc(-c2nc3c4c(-c5ccccc5)c(-c5ccccc5)n(Cc5ccccc5)c4ncn3n2)cc1 ?
Y

Per the assay record, what outcome was assigned to FC(F)(F)c1cc2c(Cl)ncnc2n1CCN1CCCCC1 ?
Y

Recorded test outcome, item COc1cc(C2CC(c3ccc(F)cc3)=Nc3c(N)nc(N)nc3N2)ccc1Oc1nc(Nc2ccc(F)cc2)nc(N(C)C)n1 (configuration not stated)
Y

I'd appreciate the recorded outcome for COc1ccc(-c2cc(-c3ccccc3)c(C#N)c(=O)[nH]2)cc1S(N)(=O)=O from this test.
N

Given CS(=O)(=O)Nc1cncc(-c2ccc3ncnc(NCc4ccccc4)c3c2)c1 , state the outcome it received in this test.
N

How did this test come out for C#CCN(C)CCCOc1ccc(N(CC)C(=O)c2cc(C(C)C)c(O)cc2O)cc1Cl ?
Y

Record lookup: outcome of this test for COc1ccc2[nH]c(=O)cc(-n3ncc(C(=O)/C=C/c4cc(OC)c(OC)c(OC)c4)c3C)c2c1 ?
Y

Which outcome was assigned to CN(C)CCCNC(=S)Nc1ccc(/C=C/c2ccc(Cl)cc2)cc1 in this test?
Y
